target: Gal(b1-4)Glc6S; test: glycan array binding signal (z-score within array); higher = stronger binding; conditions: glycan notation: IUPAC condensed, linker removed
This is one part of a sample in which the strongest signals are shown more often than they occur.
Experimental endpoint: glycan array binding signal (z-score)

>>> result("Cohesin-marm-DC-ASGPR-CRD (protein) LDITSHHHHHHDDLDAVRIKVDTVNAKPGDTVRIPVRFSGIPSKGIANCDFVYSYDPNVLEIIEIEPGDIIVDPNPDKSFDTAVYPDRKIIVFLFAEDSGTGAYAITKDGVFATIVAKVKEGAPNGLSVIKFVEVGGFANNDLVEQKTQFFDGGVNVGDTTEPATPTTPVTTPTTTDDLDAASCPINWVEHQGSCYWFSRSGKTWPEAERYCQLENTHLVVINSREEQNFVQAHLGSAYTWMGLSDPEGVWKWVDGTDYSSGFQNWKPGQPDDWQGHGLGGGEDCAHFHPDGRWNDDVCQRSYHWVCEAGLTQASQDSH")
-0.377
